- Tested on: THP-1
- protocol-details: Cytotoxicity against human THP1 cells assessed as growth inhibition at 50 uM after 48 hrs by sulforhodamine B assay relative to control
- Type: functional
- measurement-conditions: THP-1, 48 h, read-out: GI
Reported values of inhibition of growth at 50 µM for individual entries
Answer with a number only, understood to be in %.

Below are worked cases with known answers.
INSERT INTO measurements (test_smiles, u, experimental_value) VALUES
  ('COc1cc(/C=C/C(=O)/C=C/c2cccc3ccccc23)ccc1OCc1cn(CCN2C(=O)C(=O)c3ccccc32)nn1', '%', 83),
  ('COc1cc(/C=C/C(=O)/C=C/c2cccc3ccccc23)ccc1OCc1cn(CCN2C(=O)C(=O)c3cc(Br)ccc32)nn1', '%', 40),
  ('COc1ccc(/C=C/C(=O)/C=C/c2ccc(OCc3cn(CCN4C(=O)C(=O)c5cc(Br)ccc54)nn3)c(OC)c2)cc1OC', '%', 65);

// field: inhibition of growth at 50 µM; key: COc1ccc(/C=C/C(=O)/C=C/c2ccc(OCc3cn(CCN4C(=O)C(=O)c5cc(Br)ccc54)nn3)c(OC)c2)cc1 ; value = 60

Lab note: COc1cc(/C=C/C(=O)/C=C/c2cccc(Br)c2)ccc1OCc1cn(CCN2C(=O)C(=O)c3ccccc32)nn1 gave inhibition of growth at 50 µM of 40

Item: COc1ccccc1/C=C/C(=O)/C=C/c1ccc(OCc2cn(CCN3C(=O)C(=O)c4ccccc43)nn2)c(OC)c1 | inhibition of growth at 50 µM: 70

Quick note, inhibition of growth at 50 µM for COc1cc(/C=C/C(=O)/C=C/c2ccc(Cl)cc2)ccc1OCc1cn(CCN2C(=O)C(=O)c3cc(Cl)ccc32)nn1 landed at 30

According to the records, this molecule COc1cccc(/C=C/C(=O)/C=C/c2ccc(OCc3cn(CCN4C(=O)C(=O)c5cc(Br)ccc54)nn3)c(OC)c2)c1 displays inhibition of growth at 50 µM of 54
